Target: NMDA receptor
Assay: NMDA receptor binding assay using [^3 H]CPP as antagonist ligand
Conditions: [^3 H]CPP
measured endpoint: pIC50
Field pIC50 (float): negative decimal logarithm of the concentration in molar.

[[record]]
molecule = "NC(C(=O)O)c1cccc(CP(=O)(O)O)c1 (centres unmarked)"
measured_endpoint = "pIC50"
data_value = 4.93

[[record]]
molecule = "NC(Cc1cccc(CP(=O)(O)O)c1)C(=O)O (centres unmarked)"
measured_endpoint = "pIC50"
data_value = 5.45


# lookup: pIC50 of NC(C(=O)O)c1ccc(CP(=O)(O)O)cc1 (racemic) 6.00

What about this molecule? NC(C(=O)O)c1cccc(P(=O)(O)O)c1 (racemic) 4.75

What about this molecule? NC(CCCCCP(=O)(O)O)C(=O)O (centres unmarked) [APH, 2-amino-7-phosphonoheptanoic acid, reference compound] 6.10

Provenance of the data: patent US5175153A
